- Tested on: nuclear factor erythroid 2-related factor 2 (Nrf2) pathway
- Assay type: cell-based, human
- condition context: MCF7AREc32, 24 h exposure, linear regression
assay metric: ECIR1.5 (effective concentration at an induction ratio of 1.5), Nrf2 activity (mg/L)

                                   compound  reported_value
0                        [Cd] [Cd, cadmium]            0.24
1  CC(C)(C)c1cc(O)ccc1O [tBHQ, tert-butylhydroquinone]            0.27
2    [As] [As, arsenic, reference compound]            0.11
3                        [Ga] [Ga, gallium]            0.83
